experiment: Selectivity index, ratio of IC50 for African green monkey Vero cells to IC50 for Trypanosoma cruzi TINF/CH/1956/Tulahuen DTU 6 trypomastigotes derived from infected Balb/c mouse; format: toxicity; settings: read-out: Ratio IC50
Simple rule here: selectivity ratio less than 50 is satisfied, otherwise not satisfied.

Below are worked cases with known answers.
CCCCCCNc1c(N(C)CCCN(C)C)c(=O)c1=O | not satisfied
CN(C)CCCN(C)c1c(N)c(=O)c1=O | satisfied
CCCCCCCCCCCCCCCCNc1c(N(C)CCCN(C)C)c(=O)c1=O | not satisfied
CCCCCCCCCCCCOc1c(N(C)CCCN(C)C)c(=O)c1=O | satisfied
CCCCCCCCCCCCCCCCOP(=O)([O-])OCC[N+](C)(C)C | satisfied

From here, focus on the item given below.
hey, is selectivity ratio for CCNc1c(N(C)CCCN(C)C)c(=O)c1=O lower than 50 or not? satisfied

====

assay: Hepatotoxicity in Balb/c mouse infected with Trypanosoma cruzi MHOM/Pe/2011/Arequipa DTU 5 trypomastigotes assessed as increase in total bilirubin level at 20 mg/kg, po once daily for 5 consecutive days starting from day 10 post infection measured on day 16 post infection relative to control; type: toxicity, organism-based; settings: in vivo
readout label: Activity

Any idea what its Activity is? The molecule is O=C(Cn1ccnc1[N+](=O)[O-])NCc1ccccc1 20 to 30 mg/dL

====

assay: Selectivity index, ratio of IC50 for African green monkey Vero cells to IC50 for Trypanosoma cruzi MHOM/Pe/2011/Arequipa DTU 5 amastigotes infected in African green monkey Vero cells; format: toxicity; settings: read-out: Ratio IC50
readout label: selectivity ratio
Number only, please.

// below: answered molecules
CN(C)CCCN(C)c1c(N)c(=O)c1=O | 27
CCCCCCCCCCCCCCCCNc1c(N(C)CCCN(C)C)c(=O)c1=O | 3090
CCNc1c(N(C)CCCN(C)C)c(=O)c1=O | 32.3
CCCCNc1c(N(C)CCCN(C)C)c(=O)c1=O | 29.9
CCCCCCNc1c(N(C)CCCN(C)C)c(=O)c1=O | 52.1

Kindly review the next molecule as well.
Any idea what its selectivity ratio is? The molecule is CCCCCCCCCCCCCCCCOP(=O)([O-])OCC[N+](C)(C)C [MILTEFOSINE] 0.7

====

test: Selectivity index, ratio of IC50 for African green monkey Vero cells to IC50 for Trypanosoma cruzi TINF/CH/1956/Tulahuen DTU 6 amastigotes infected in African green monkey Vero cells; type: toxicity; conditions: read-out: Ratio IC50
Classify by measured selectivity ratio: fulfilled if it is equal to or exceeds 20, not fulfilled if it is smaller.

Below are worked cases with known answers.
CCCCCCCCCCCCCCCCOP(=O)([O-])OCC[N+](C)(C)C | not fulfilled
CCCCCCCCCCCCOc1c(N(C)CCCN(C)C)c(=O)c1=O | not fulfilled
CN(C)CCCN(C)c1c(N)c(=O)c1=O | fulfilled

State whether the measured selectivity ratio reaches 20, counting equality as reaching it, for CCNc1c(N(C)CCCN(C)C)c(=O)c1=O fulfilled

State whether the measured selectivity ratio reaches 20, counting equality as reaching it, for CCCCCCCCCCCCCCCCNc1c(N(C)CCCN(C)C)c(=O)c1=O fulfilled

State whether the measured selectivity ratio reaches 20, counting equality as reaching it, for CCCCCCNc1c(N(C)CCCN(C)C)c(=O)c1=O fulfilled

State whether the measured selectivity ratio reaches 20, counting equality as reaching it, for CCCCNc1c(N(C)CCCN(C)C)c(=O)c1=O fulfilled

The measured values listed here are drawn from ChEMBL document CHEMBL4411344.
